molecular target: LRRK2 (Homo sapiens, UniProt Q5S007); assay: LRRK2-LRRK2 G2019S-Assay (LanthaScreen Eu Kinase Binding Assay); conditions: 5 nM LRRK2, 10 nM tracer 236, 2 nM EU-Anti-GST antibody, 1 h at RT; read-out: LRRK2 Activities: IC50
Sequence (Q5S007 970-2527 limits assumed): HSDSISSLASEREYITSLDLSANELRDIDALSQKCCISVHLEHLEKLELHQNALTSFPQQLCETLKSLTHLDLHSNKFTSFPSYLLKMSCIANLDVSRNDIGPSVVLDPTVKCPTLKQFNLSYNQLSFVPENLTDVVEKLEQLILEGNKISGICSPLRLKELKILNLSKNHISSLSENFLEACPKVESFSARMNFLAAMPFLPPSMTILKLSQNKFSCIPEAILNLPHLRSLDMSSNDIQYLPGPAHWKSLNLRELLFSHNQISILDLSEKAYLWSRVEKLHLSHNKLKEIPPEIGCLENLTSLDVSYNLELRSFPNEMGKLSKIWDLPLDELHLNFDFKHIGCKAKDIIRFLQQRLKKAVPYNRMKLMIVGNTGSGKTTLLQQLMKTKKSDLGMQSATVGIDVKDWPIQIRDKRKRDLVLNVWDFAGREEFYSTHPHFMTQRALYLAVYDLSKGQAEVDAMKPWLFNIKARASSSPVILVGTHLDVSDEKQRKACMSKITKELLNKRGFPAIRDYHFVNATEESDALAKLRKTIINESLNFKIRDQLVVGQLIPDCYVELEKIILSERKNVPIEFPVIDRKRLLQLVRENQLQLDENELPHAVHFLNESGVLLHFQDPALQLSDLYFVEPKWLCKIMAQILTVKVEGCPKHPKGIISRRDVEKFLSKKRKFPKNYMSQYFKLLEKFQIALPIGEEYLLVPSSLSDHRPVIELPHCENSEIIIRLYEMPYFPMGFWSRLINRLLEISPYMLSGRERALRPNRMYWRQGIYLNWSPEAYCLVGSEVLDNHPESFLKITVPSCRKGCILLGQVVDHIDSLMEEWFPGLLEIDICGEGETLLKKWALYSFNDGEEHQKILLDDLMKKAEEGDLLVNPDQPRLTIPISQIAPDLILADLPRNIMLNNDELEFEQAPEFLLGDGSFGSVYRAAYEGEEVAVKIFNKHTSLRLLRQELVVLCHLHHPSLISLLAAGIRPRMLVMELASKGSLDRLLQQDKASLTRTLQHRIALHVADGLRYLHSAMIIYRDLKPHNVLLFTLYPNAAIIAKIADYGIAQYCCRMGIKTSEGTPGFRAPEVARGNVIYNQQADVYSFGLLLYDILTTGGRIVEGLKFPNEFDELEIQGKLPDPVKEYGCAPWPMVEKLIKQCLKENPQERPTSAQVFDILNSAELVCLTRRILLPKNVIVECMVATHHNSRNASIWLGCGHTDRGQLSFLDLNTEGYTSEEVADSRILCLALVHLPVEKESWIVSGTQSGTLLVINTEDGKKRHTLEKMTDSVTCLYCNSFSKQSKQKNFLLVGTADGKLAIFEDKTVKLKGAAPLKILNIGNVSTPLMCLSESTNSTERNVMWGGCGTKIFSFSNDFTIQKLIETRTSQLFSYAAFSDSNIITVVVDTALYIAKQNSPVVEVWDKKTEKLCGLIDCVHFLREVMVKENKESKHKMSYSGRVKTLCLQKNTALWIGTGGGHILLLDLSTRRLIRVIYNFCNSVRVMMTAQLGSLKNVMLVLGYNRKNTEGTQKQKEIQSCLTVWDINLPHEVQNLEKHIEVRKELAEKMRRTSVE
pIC50: −log10 of the molar value.
quantity.name: pIC50

Worked cases, pIC50 given:
Give its pIC50 value. Item: COc1cccc2nc(Nc3cc(C4CC4)[nH]n3)c3n[nH]cc3c12
7.00 to 8.00

What do we get for CC(C)n1cc(Nc2nc3ccc(S(C)(=O)=O)cc3c3cn[nH]c23)c(C(N)=O)n1 ?
6.00 to 7.00

Next: CC(=O)N1CCN(c2ccc(Nc3nc4c(F)cccc4c4cn[nH]c34)cc2)CC1
6.00 to 7.00

***
Would you mind telling me what pIC50 value was observed for CC(C)(C)N1CCN(c2ccc(Nc3nc4cccc(S(C)(=O)=O)c4c4cn[nH]c34)cc2)CC1 ?
6.00 to 7.00

// next record COc1ccc2nc(Nc3cnn(C(C)C(=O)O)c3)c3n[nH]cc3c2c1 (stereo not shown)
6.00 to 7.00

Now the compound CC(C)C(C)n1cc(Nc2nc3ccc(S(C)(=O)=O)cc3c3c[nH]nc23)cn1 (stereo not shown)
> 8.00

// query: COc1ccc2nc(Nc3cnn(C(C)(C)C(N)=O)c3)c3n[nH]cc3c2c1
6.00 to 7.00

Field entry: CS(=O)(=O)c1ccc2nc(Nc3ccccc3O)c3n[nH]cc3c2c1
6.00 to 7.00

Subsequent entry: Cc1cccc2nc(Nc3cccc(S(C)(=O)=O)c3)c3[nH]ncc3c12
6.00 to 7.00

Next record, please: CSc1ccc2nc(Nc3ccc4c(c3)CN(C)C4)c3[nH]ncc3c2c1
7.00 to 8.00

* * *

molecular target: LRRK2 (Homo sapiens, UniProt Q5S007); assay: LRRK2-LRRK2 G2019S-Assay (LanthaScreen Eu Kinase Binding Assay); settings: 5 nM LRRK2, 10 nM tracer 236, 2 nM EU-Anti-GST antibody, 1 h at RT; read-out: LRRK2 Activities: IC50
pIC50: −log10 of the molar value.
quantity.name: pIC50

Recorded pIC50, per entry:
If you can, please state the reported pIC50 value of Cc1c(Nc2nc3ccc(S(C)(=O)=O)cc3c3cn[nH]c23)cnn1C1CCOCC1 .
7.00 to 8.00

Param item: COc1cccc2nc(Nc3cnn(C4CCN(C)CC4)c3)c3[nH]ncc3c12
> 8.00

Also CC(=O)N1CCC(n2cc(Nc3nc4ccc(S(C)(=O)=O)cc4c4cn[nH]c34)cn2)CC1 , if possible.
> 8.00

Also COc1cccc2nc(Nc3ccc(-c4ncco4)cc3)c3[nH]ncc3c12 ?
6.00 to 7.00

# iterate: COc1cccc2nc(Nc3ccc(N4CCCC4=O)cc3)c3[nH]ncc3c12
7.00 to 8.00

Then this compound:
If you can, please state the reported pIC50 value of CC(C)(C)N1CCC(n2cc(Nc3nc4ccc(S(C)(=O)=O)cc4c4cn[nH]c34)cn2)CC1 .
> 8.00
